test: Solubility of antineoplastic drugs in biocompatible pharmaceutical solvents; details: N-N dimethylacetylamide, 25 °C, organic solvent or mixture
readout: solubility

The molecule listed as CC(=O)O[C@@]12CO[C@@H]1C[C@H](O)[C@@]1(C)C(=O)[C@H](O)C3=C(C)[C@@H](OC(=O)[C@H](O)[C@@H](NC(=O)OC(C)(C)C)c4ccccc4)C[C@@](O)([C@@H](OC(=O)c4ccccc4)[C@H]21)C3(C)C has a reported solubility of > 50 mg/mL

response.value for CC(=O)O[C@H]1C(=O)[C@@]2(C)[C@H]([C@H](OC(=O)c3ccccc3)[C@]3(O)C[C@H](OC(=O)[C@H](O)[C@@H](NC(=O)c4ccccc4)c4ccccc4)C(C)=C1C3(C)C)[C@]1(OC(C)=O)CO[C@@H]1C[C@@H]2O (field: solubility) = > 50 mg/mL

Noted for COc1cc([C@@H]2c3cc4c(cc3[C@@H](O[C@@H]3O[C@@H]5CO[C@@H](c6cccs6)O[C@H]5[C@H](O)[C@H]3O)[C@H]3COC(=O)[C@H]23)OCO4)cc(OC)c1O [Teniposide] : its solubility reads > 105 mg/mL

For this molecule ( CC[C@@]1(O)C(=O)OCc2c1cc1n(c2=O)Cc2cc3cc(O)ccc3nc2-1 [Hydroxycamptothecine] ), measured solubility is ~71.4 mg/mL

----------
test: Solubility of antineoplastic drugs in biocompatible pharmaceutical solvents; details: Medium Chain Triglycerides, 120 °C, oil or lipid
readout: solubility

Sure, the documented solubility for CC(=O)O[C@H]1C(=O)[C@@]2(C)[C@H]([C@H](OC(=O)c3ccccc3)[C@]3(O)C[C@H](OC(=O)[C@H](O)[C@@H](NC(=O)c4ccccc4)c4ccccc4)C(C)=C1C3(C)C)[C@]1(OC(C)=O)CO[C@@H]1C[C@@H]2O is > 6000 µg/mL

----------
assay: Solubility of antineoplastic drugs in biocompatible pharmaceutical solvents; settings: soybean oil, 25 °C, oil or lipid
Exercise: for every item that follows, state its recorded solubility.

Recorded result, CC(=O)O[C@@]12CO[C@@H]1C[C@H](O)[C@@]1(C)C(=O)[C@H](O)C3=C(C)[C@@H](OC(=O)[C@H](O)[C@@H](NC(=O)OC(C)(C)C)c4ccccc4)C[C@@](O)([C@@H](OC(=O)c4ccccc4)[C@H]21)C3(C)C , solubility: < 10000 µg/mL

compound CC(=O)O[C@H]1C(=O)[C@@]2(C)[C@H]([C@H](OC(=O)c3ccccc3)[C@]3(O)C[C@H](OC(=O)[C@H](O)[C@@H](NC(=O)c4ccccc4)c4ccccc4)C(C)=C1C3(C)C)[C@]1(OC(C)=O)CO[C@@H]1C[C@@H]2O , solubility observed: < 6000 µg/mL

----------
What solubility was measured for each of the following?
test: physchem; details: dehydrated ethanol, 25 °C, organic solvent or mixture

response.value for CC(=O)O[C@H]1C(=O)[C@@]2(C)[C@H]([C@H](OC(=O)c3ccccc3)[C@]3(O)C[C@H](OC(=O)[C@H](O)[C@@H](NC(=O)c4ccccc4)c4ccccc4)C(C)=C1C3(C)C)[C@]1(OC(C)=O)CO[C@@H]1C[C@@H]2O (field: solubility) = > 6000 µg/mL

Note to self: solubility recorded for CC(=O)O[C@@]12CO[C@@H]1C[C@H](O)[C@@]1(C)C(=O)[C@H](O)C3=C(C)[C@@H](OC(=O)[C@H](O)[C@@H](NC(=O)OC(C)(C)C)c4ccccc4)C[C@@](O)([C@@H](OC(=O)c4ccccc4)[C@H]21)C3(C)C was 118000 to 126000 µg/mL

For this compound ( COc1cc([C@@H]2c3cc4c(cc3[C@@H](O[C@@H]3O[C@@H]5CO[C@@H](c6cccs6)O[C@H]5[C@H](O)[C@H]3O)[C@H]3COC(=O)[C@H]23)OCO4)cc(OC)c1O [Teniposide] ), measured solubility is < 130 µg/mL

The compound CC[C@@]1(O)C(=O)OCc2c1cc1n(c2=O)Cc2cc3cc(O)ccc3nc2-1 [Hydroxycamptothecine] showed solubility equal to < 1000 µg/mL

----------
experiment: Solubility of antineoplastic drugs in biocompatible pharmaceutical solvents; conditions: Tween-80, 25 °C, organic solvent or mixture
readout: solubility

The molecule CC(=O)O[C@@]12CO[C@@H]1C[C@H](O)[C@@]1(C)C(=O)[C@H](O)C3=C(C)[C@@H](OC(=O)[C@H](O)[C@@H](NC(=O)OC(C)(C)C)c4ccccc4)C[C@@](O)([C@@H](OC(=O)c4ccccc4)[C@H]21)C3(C)C [Docetaxel] showed solubility equal to < 40000 µg/mL

Per the record, COc1cc([C@@H]2c3cc4c(cc3[C@@H](O[C@@H]3O[C@@H]5CO[C@@H](c6cccs6)O[C@H]5[C@H](O)[C@H]3O)[C@H]3COC(=O)[C@H]23)OCO4)cc(OC)c1O [Teniposide] has solubility of < 1700 µg/mL

// solubility lookup, molecule = CC[C@@]1(O)C(=O)OCc2c1cc1n(c2=O)Cc2cc3cc(O)ccc3nc2-1 [Hydroxycamptothecine] , result: < 1000 µg/mL

Note to self: solubility recorded for CC(=O)O[C@H]1C(=O)[C@@]2(C)[C@H]([C@H](OC(=O)c3ccccc3)[C@]3(O)C[C@H](OC(=O)[C@H](O)[C@@H](NC(=O)c4ccccc4)c4ccccc4)C(C)=C1C3(C)C)[C@]1(OC(C)=O)CO[C@@H]1C[C@@H]2O [Paclitaxel] was < 6000 µg/mL

----------
assay: Solubility of antineoplastic drugs in biocompatible pharmaceutical solvents; conditions: PEG-400, 110 °C, organic solvent or mixture
readout: solubility

Documented solubility of CC(=O)O[C@@]12CO[C@@H]1C[C@H](O)[C@@]1(C)C(=O)[C@H](O)C3=C(C)[C@@H](OC(=O)[C@H](O)[C@@H](NC(=O)OC(C)(C)C)c4ccccc4)C[C@@](O)([C@@H](OC(=O)c4ccccc4)[C@H]21)C3(C)C [Docetaxel] : > 40 mg/mL

Measured solubility, CC(=O)O[C@H]1C(=O)[C@@]2(C)[C@H]([C@H](OC(=O)c3ccccc3)[C@]3(O)C[C@H](OC(=O)[C@H](O)[C@@H](NC(=O)c4ccccc4)c4ccccc4)C(C)=C1C3(C)C)[C@]1(OC(C)=O)CO[C@@H]1C[C@@H]2O [Paclitaxel] : > 40 mg/mL

----------
assay: Solubility of antineoplastic drugs in biocompatible pharmaceutical solvents; conditions: PEG-400, 25 °C, organic solvent or mixture
For each of the compounds below, state its solubility.

Quick note, solubility for CC(=O)O[C@H]1C(=O)[C@@]2(C)[C@H]([C@H](OC(=O)c3ccccc3)[C@]3(O)C[C@H](OC(=O)[C@H](O)[C@@H](NC(=O)c4ccccc4)c4ccccc4)C(C)=C1C3(C)C)[C@]1(OC(C)=O)CO[C@@H]1C[C@@H]2O landed at < 40 mg/mL

So, CC(=O)O[C@@]12CO[C@@H]1C[C@H](O)[C@@]1(C)C(=O)[C@H](O)C3=C(C)[C@@H](OC(=O)[C@H](O)[C@@H](NC(=O)OC(C)(C)C)c4ccccc4)C[C@@](O)([C@@H](OC(=O)c4ccccc4)[C@H]21)C3(C)C ? Its solubility was < 10 mg/mL

----------
experiment: Solubility of antineoplastic drugs in biocompatible pharmaceutical solvents; settings: soybean oil, 140 °C, oil or lipid
readout: solubility

solubility in this record for CC(=O)O[C@@]12CO[C@@H]1C[C@H](O)[C@@]1(C)C(=O)[C@H](O)C3=C(C)[C@@H](OC(=O)[C@H](O)[C@@H](NC(=O)OC(C)(C)C)c4ccccc4)C[C@@](O)([C@@H](OC(=O)c4ccccc4)[C@H]21)C3(C)C [Docetaxel] : 12.5 to 15 mg/mL

----------
experiment: Solubility of antineoplastic drugs in biocompatible pharmaceutical solvents; settings: Medium Chain Triglycerides, 200 °C, oil or lipid
readout: solubility

The molecule COc1cc([C@@H]2c3cc4c(cc3[C@@H](O[C@@H]3O[C@@H]5CO[C@@H](c6cccs6)O[C@H]5[C@H](O)[C@H]3O)[C@H]3COC(=O)[C@H]23)OCO4)cc(OC)c1O [Teniposide] showed solubility equal to < 200 µg/mL
